The values you see were collected from PubChem BioAssay AID743364.

experiment: qHTS profiling of inhibitors of Plasmodium falciparum (3D7) proliferation (acoustic dispense); settings: P. falciparum 3D7 in erythrocytes, SYBR Green, 72 h; series mostly up to 49.8 µM
Active and inactive are the calls of the source. Calls follow the shape of the dose curve; as a rule, active = well fitted curve in the direction sought with a large enough effect; inactive = no such curve, though single readings can be large or run the other way.
readout.kind: activity change

See these solved cases before continuing.
CN[C@@H](C)C(=O)N[C@H]1CCCC[C@H]2CC[C@@H](C(=O)N[C@@H](c3ccccc3)c3cn(CCCCc4ccc(CCCCn5cc([C@@H](NC(=O)[C@@H]6CC[C@@H]7CCCC[C@H](NC(=O)[C@H](C)NC)C(=O)N76)c6ccccc6)nn5)cc4)nn3)N2C1=O: inactive
COc1ccc(-c2ccc3ncc4c(c3c2)n(-c2ccc(N3CCNCC3)c(C(F)(F)F)c2)c(=O)n4C)cn1: inactive
C#Cc1cccc(Nc2ncnc3cc(OC)c(OCCCCCCC(=O)NO)cc23)c1: inactive
Cc1nc2c(C#N)cccc2n1-c1ccc(C(=O)NC2CC2)s1: inactive
C=CCNC1=C2C[C@@H](C)C[C@H](OC)[C@@H](O)[C@@H](C)C=C(C)[C@H](OC(N)=O)[C@@H](OC)C=CC=C(C)C(=O)NC(=CC1=O)C2=O: inactive

Problem: Could you share which activity change value was measured for C1CCC(C(CC2CCCCN2)C2CCCCC2)CC1 (stereo unspecified) ?
Solution: inactive
